- Assay target: Cbl-b ubiquitin ligase (N1/2 construct) (Homo sapiens)
- Construct: 75-nM Cbl-b (N1/2 construct) [27]
- Method summary: Cbl-b biochemical assay (in vitro autoubiquitination ELISA, inhibition of ubiquitin ligase activity)
- Condition context: in vitro enzymatic activity of Cbl-b ubiquitin ligase; 75-nM Cbl-b, 100 µM ATP, 60 min reaction; read-out: Cbl-b inhibitory activity IC50
Response field label takes satisfied when IC50 is strictly below 20000 nM and not satisfied in all other cases.

Before answering, review these 3 worked examples.
Strictly below 20000 nM: is that where IC50 of Cn1cc(Br)cc1C(=O)NCC1C(CNC(=O)c2ccc(Br)[nH]2)Cc2[nH]c(N)nc2C1c1c[nH]c(N)n1 (stereo not shown) sits?
not satisfied

Strictly below 20000 nM: is that where IC50 of Cn1cc(Br)cc1C(=O)NC[C@H]1Cc2nc(N)[nH]c2[C@@H](c2c[nH]c(N)n2)[C@@H]1CNC(=O)c1cc(Br)c(Br)[nH]1 sits?
satisfied

Strictly below 20000 nM: is that where IC50 of CC(=CCn1cnc2c1c(N)nc[n+]2C)CCC1(C)C2=CCCC(C)(C)C2CCC1C (stereo not shown) sits?
not satisfied

Turning to the following compound.
Strictly below 20000 nM: is that where IC50 of Cn1cc(Br)cc1C(=O)NC[C@H]1Cc2nc(N)[nH]c2[C@@H](c2c[nH]c(N)n2)[C@@H]1CNC(=O)c1cc(Br)c[nH]1 sits?
not satisfied

====

- Assay target: Cbl-b ubiquitin ligase (N1/2 construct) (Homo sapiens, UniProt Q13191)
- Construct: 75-nM Cbl-b (N1/2 construct) [27]
- Sequence (Q13191 1-483 limits assumed): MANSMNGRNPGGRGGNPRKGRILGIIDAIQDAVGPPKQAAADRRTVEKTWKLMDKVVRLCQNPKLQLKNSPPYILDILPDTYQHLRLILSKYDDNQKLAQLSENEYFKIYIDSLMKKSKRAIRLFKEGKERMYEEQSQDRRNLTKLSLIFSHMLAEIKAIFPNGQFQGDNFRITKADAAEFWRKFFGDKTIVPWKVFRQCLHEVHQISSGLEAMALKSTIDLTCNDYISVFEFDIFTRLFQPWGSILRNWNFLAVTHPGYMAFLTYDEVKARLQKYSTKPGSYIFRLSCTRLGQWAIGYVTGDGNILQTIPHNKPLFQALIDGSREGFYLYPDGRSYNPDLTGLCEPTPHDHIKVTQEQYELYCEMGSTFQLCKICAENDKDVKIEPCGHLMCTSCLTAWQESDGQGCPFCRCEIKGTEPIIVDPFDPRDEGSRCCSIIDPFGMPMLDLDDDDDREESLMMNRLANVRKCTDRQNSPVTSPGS
- Method summary: Cbl-b biochemical assay (in vitro autoubiquitination ELISA, inhibition of ubiquitin ligase activity)
- Condition context: in vitro enzymatic activity of Cbl-b ubiquitin ligase; 75-nM Cbl-b, 100 µM ATP, 60 min reaction; read-out: Cbl-b inhibitory activity IC50
Reported IC50 values are given for each entry in this list.
Please report the result as a number followed by the unit.

Here's what some known entries look like.
I'd like to know its IC50. The molecule in question is Cn1c(Br)ccc1C(=O)NC[C@H]1Cc2nc(N)[nH]c2[C@@H](c2c[nH]c(N)n2)[C@@H]1CNC(=O)c1cc(Br)c[nH]1 [Compound 5, N(1′)-methylisoageliferin]
25000 nM

I'd like to know its IC50. The molecule in question is Cn1cc(Br)cc1C(=O)NC[C@@H]1[C@@H](CNC(=O)c2ccc(Br)n2C)Cc2nc(N)[nH]c2[C@H]1c1c[nH]c(N)n1 [Compound 7, N(1),N(1′)-dimethylisoageliferin]
18000 nM

I'd like to know its IC50. The molecule in question is CNc1nc[n+](C)c2ncn(C/C=C(\C)CC[C@@]3(C)[C@H](C)CC[C@]4(C)C(C)=CCC[C@H]34)c12 [Compound 3, Agelasine Y]
66000 nM

I'd like to know its IC50. The molecule in question is CNc1nc[n+](C)c2ncn(C/C=C(\C)CC[C@]3(C)C4=CCCC(C)(C)[C@H]4CC[C@H]3C)c12 [Compound 2, Agelasine X]
72000 nM

I'd like to know its IC50. The molecule in question is Cn1cc(Br)cc1C(=O)NC[C@H]1Cc2nc(N)[nH]c2[C@@H](c2c[nH]c(N)n2)[C@@H]1CNC(=O)c1cc(Br)cn1C [Compound 8, N(1),N(1′)-dimethylageliferin]
19000 nM

Next:
I'd like to know its IC50. The molecule in question is Cn1c(C(=O)NC[C@H]2Cc3nc(N)[nH]c3[C@@H](c3c[nH]c(N)n3)[C@@H]2CNC(=O)c2cc(Br)c[nH]2)cc(Br)c1Br [Compound 10, N(1′)-methyl-2′-bromoageliferin]
35000 nM
